B1: PBXIP1 (parent)
chain: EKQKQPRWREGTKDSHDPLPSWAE

Variants of: B1
Assay: protein stability index of a GFP-peptide fusion (GPS, HEK-293T) (PSI 1-6); higher = more stable;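 note: lentivirally expressed fusions sorted by FACS into six bins by GFP to DsRed ratio, PSI derived from sequencing read proportions per bin multiplied by bin number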
Conditions: c terminus: a fixed tail appended
VALUE TYPE: protein stability index

>>> value_measured("TKQKQPRWREGTKDSHDPLPSWAE [E1T]")
2.38
>>> value_measured("EKQKQPRWREGTKDSHYPLPSWAE [D17Y]")
1.5
>>> value_measured("EKQKQPRWRQGTKDSHDPLPSWAE [E10Q]")
1.83
>>> value_measured("EKQWQPRWREGTKDSHDPLPSWAE [K4W]")
1
>>> value_measured("EKQKQPRWREGTKDSWDPLPSWAE [H16W]")
1.37
>>> value_measured("EKQKQPRWREGTKDSHTPLPSWAE [D17T]")
1.43
>>> value_measured("ERQKQPRWREGTKDSHDPLPSWAE [K2R]")
2.02
>>> value_measured("EKQKQPRWREGTKQSHDPLPSWAE [D14Q]")
1.87

Req: For the variant EKQKQPRWREPTKDSHDPLPSWAE [G11P] , what protein stability index is on record?
Resp: 1.77

Req: Next record, please: EKQKQPRWREGTKDSHDMLPSWAE [P18M]
Resp: 1.88

Req: Next record, please: EKQKQHRWREGTKDSHDPLPSWAE [P6H]
Resp: 2.53
